Biological target: MR (Homo sapiens)
Construct: expressed in transfected cells; host or cells: CV-1 cells, transient transfection
Sequence (P08235 whole entry): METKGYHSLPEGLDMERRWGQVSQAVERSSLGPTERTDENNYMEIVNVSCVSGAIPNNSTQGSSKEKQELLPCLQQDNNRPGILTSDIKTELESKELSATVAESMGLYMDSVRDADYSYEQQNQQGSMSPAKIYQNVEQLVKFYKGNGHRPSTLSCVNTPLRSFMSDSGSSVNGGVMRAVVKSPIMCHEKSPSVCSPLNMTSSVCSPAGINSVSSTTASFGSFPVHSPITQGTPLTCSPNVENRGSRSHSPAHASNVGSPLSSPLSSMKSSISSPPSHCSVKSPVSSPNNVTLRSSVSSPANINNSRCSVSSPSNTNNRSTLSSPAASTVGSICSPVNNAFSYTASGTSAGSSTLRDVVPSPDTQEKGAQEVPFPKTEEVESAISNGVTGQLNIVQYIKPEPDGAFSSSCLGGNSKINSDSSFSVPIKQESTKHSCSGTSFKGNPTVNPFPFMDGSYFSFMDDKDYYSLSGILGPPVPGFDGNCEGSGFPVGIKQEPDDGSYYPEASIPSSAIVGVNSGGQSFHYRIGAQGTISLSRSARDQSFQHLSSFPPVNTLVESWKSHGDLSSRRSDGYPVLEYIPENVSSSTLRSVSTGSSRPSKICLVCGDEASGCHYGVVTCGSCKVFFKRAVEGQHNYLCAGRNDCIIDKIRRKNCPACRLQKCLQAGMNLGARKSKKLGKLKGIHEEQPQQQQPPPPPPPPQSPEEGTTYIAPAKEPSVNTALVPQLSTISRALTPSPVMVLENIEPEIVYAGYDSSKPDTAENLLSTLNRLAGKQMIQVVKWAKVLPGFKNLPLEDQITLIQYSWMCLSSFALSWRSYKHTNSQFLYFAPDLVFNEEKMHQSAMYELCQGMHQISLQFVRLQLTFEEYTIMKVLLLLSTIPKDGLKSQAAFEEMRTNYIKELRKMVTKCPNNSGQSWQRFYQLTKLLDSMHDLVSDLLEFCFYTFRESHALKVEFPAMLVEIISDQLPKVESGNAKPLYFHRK
Test: Co-transfection assay, MR antagonist activity
Format: cell-based
Details: CV-1, read-out: MR Antagonist CV-1 Cells Efficacy (%)
Rule for this label: True means Emax is less than 70%; False means Emax is at least 70%.

In plain terms, does CC(=O)S[C@@H]1CC2=CC(=O)CC[C@]2(C)[C@H]2CC[C@@]3(C)[C@@H](CC[C@@]34CCC(=O)O4)[C@H]12 [Spir, reference compound] come in under 70% for Emax?
False

Hello, I'm reviewing records and need to know if Emax of CC1=CC(C)(C)Nc2ccc3c(c21)C(c1ccc(C)cc1)Oc1ccccc1-3 (racemic) is below 70%. Could you check?
True

Answer whether the compound CC1=CC(C)(C)Nc2ccc3c(c21)C(c1ccsc1)Oc1ccccc1-3 (racemic) has Emax strictly less than 70%
False

State whether 70% exceeds Emax recorded for CC1=CC(C)(C)Nc2ccc3c(c21)C(c1cccc(C(F)(F)F)c1)Oc1ccccc1-3 (racemic) .
True

I'd appreciate it if you could check whether CC1=CC(C)(C)Nc2ccc3c(c21)C(c1ccccc1)Oc1ccccc1-3 (racemic) has Emax smaller than 70%.
True

Is the reported Emax for CC#C[C@]1(O)CC[C@H]2[C@@H]3CCC4=CC(=O)CCC4=C3[C@@H](c3ccc(N(C)C)cc3)C[C@@]21C [RU486, reference compound] strictly below 70%?
False
